Reference source for all entries: patent US20240018135A1

molecular target: Human OGA (recombinant hOGA protein) (Homo sapiens (Human), UniProt O60502); assay: Human OGA enzyme activity assay (fluorescence, 4-Methylumbelliferyl N-acetyl-β-D-glucosaminide substrate); assay type: biochemical; conditions: Table 1, test concentration not given
Sequence (O60502 whole entry): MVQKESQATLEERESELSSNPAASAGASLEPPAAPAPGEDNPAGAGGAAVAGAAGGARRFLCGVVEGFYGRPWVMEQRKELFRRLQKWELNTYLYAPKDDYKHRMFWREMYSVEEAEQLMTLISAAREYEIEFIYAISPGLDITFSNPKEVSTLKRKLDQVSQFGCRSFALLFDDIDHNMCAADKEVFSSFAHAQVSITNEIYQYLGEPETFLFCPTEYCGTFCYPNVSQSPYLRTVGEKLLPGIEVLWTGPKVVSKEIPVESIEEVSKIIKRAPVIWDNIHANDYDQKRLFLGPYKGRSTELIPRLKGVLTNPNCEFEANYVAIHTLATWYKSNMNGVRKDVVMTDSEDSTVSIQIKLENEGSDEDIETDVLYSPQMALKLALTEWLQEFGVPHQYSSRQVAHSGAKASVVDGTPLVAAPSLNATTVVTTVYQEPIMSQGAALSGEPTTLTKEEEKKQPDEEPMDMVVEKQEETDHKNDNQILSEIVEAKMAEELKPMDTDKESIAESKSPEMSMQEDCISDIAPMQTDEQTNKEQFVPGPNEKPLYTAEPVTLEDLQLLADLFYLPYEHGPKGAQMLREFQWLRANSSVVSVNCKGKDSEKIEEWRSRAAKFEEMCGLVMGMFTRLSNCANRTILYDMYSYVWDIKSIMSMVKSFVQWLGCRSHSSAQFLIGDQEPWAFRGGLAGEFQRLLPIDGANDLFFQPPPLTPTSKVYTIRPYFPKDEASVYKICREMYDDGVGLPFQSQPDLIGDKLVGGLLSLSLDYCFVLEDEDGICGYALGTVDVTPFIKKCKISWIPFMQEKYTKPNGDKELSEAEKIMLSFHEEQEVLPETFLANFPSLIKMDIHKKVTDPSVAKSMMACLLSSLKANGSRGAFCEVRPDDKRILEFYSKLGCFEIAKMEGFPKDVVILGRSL
assay endpoint: % of inhibition (%)

| molecule | units label | result value |
| --- | --- | --- |
| CC(=O)Nc1ncc(CN2CCN(CC(=O)Nc3nc4c(Cl)cccc4s3)CC2)s1 | % | 42.6 |
| CC(=O)Nc1ncc(CN2CCN(CC(=O)Nc3ccc4ncccc4c3)CC2)s1 | % | 97.5 |
| CC(=O)Nc1ncc(CN2CCN(CC(=O)Nc3nccs3)CC2)s1 | % | 59.1 |
| COc1ccc(NC(=O)CN2CCN(Cc3cnc(NC(C)=O)s3)CC2)cc1OC | % | 62.4 |
| CC(=O)Nc1ncc(CN2CCC(C(=O)Nc3ccc4ncccc4c3)CC2)s1 | % | 91.4 |
| CC(=O)Nc1ncc(CN2CCN(CC(=O)Nc3ccccn3)CC2)s1 | % | 90.9 |
| CC(=O)Nc1ncc(CN2CCC(C(=O)NC(C)c3ccc4ccccc4c3)CC2)s1 (centres unmarked) | % | 96.8 |
| COc1cccc(NC(=O)CN2CCN(Cc3cnc(NC(C)=O)s3)CC2)c1 | % | 59.9 |

---

molecular target: Human OGA (recombinant hOGA protein) (Homo sapiens (Human), UniProt O60502); experiment: Human OGA enzyme activity assay (fluorescence, 4-Methylumbelliferyl N-acetyl-β-D-glucosaminide substrate); assay type: biochemical; details: Table 1, test concentration not given

| smiles data | % of inhibition (%) |
| --- | --- |
| CC(=O)Nc1ncc(CN2CCN(CC(=O)Nc3ccc(C(C)C)cc3)CC2)s1 | 79.2 |
| CC(=O)Nc1ncc(CN2CCN(CC(=O)Nc3cc(C)ccn3)CC2)s1 | 48.8 |
| CC(=O)Nc1ncc(CN2CCN(CC(=O)Nc3ccccc3)CC2)s1 | 78.3 |
| CC(=O)Nc1ncc(CN2CCN(CC(=O)Nc3cnccn3)CC2)s1 | 74.7 |
| CCOc1ccc2nc(NC(=O)CN3CCN(Cc4cnc(NC(C)=O)s4)CC3)sc2c1 | 44.6 |

---

biological target: Human OGA (recombinant hOGA protein) (Homo sapiens (Human), UniProt O60502); assay: Human OGA enzyme activity assay (fluorescence, 4-Methylumbelliferyl N-acetyl-β-D-glucosaminide substrate); format: biochemical; settings: Table 1, test concentration not given
assay endpoint: % of inhibition (%)

| compound | units label | result value |
| --- | --- | --- |
| CC(=O)Nc1ncc(CN2CCN(CC(=O)N(C)c3ccccc3)CC2)s1 [Compound A-31] | % | 50.4 |
| CC(=O)Nc1ncc(CN2CCN(CC(=O)Nc3nc4ccccc4[nH]3)CC2)s1 [Compound A-26] | % | 62.6 |
| COc1ccc(NC(=O)C=C2CCN(Cc3cnc(NC(C)=O)s3)CC2)cc1OC [Compound C-6] | % | 95.8 |
| CC(=O)Nc1ncc(CN2CCN(CC(=O)NCc3ccc(-c4ccccc4)cc3)CC2C)s1 (stereo not shown) [Compound A-41] | % | 99.6 |

---

assay endpoint: melting point

| compound | result value |
| --- | --- |
| CC(=O)Nc1ncc(CN2CCN(CC(=O)Nc3ccc(N4CCN(C(C)=O)CC4)cc3)CC2C)s1 (stereo not drawn) | 232 °C |
| COc1ccc(NC(=O)C=C2CCN(Cc3cnc(NC(C)=O)s3)CC2)cc1 | 212 to 214 °C |
| CC(=O)Nc1ncc(CN2CCN(CC(=O)Nc3cccc4ccccc34)CC2)s1 | 257 to 258 °C |
| CC(=O)Nc1ncc(CN2CCN(CC(=O)Nc3ccc(C)cn3)CC2)s1 | 224 to 230 °C |
| COc1ccc(NC(=O)C=C2CCN(Cc3cnc(NC(C)=O)s3)CC2)cc1OC | 214 to 219 °C |
| CC(=O)Nc1ncc(CN2CCC(C(=O)Nc3ccccc3)CC2)s1 | 172 to 174 °C |
| CC(=O)Nc1ncc(CN2CCN(CC(=O)NC3CCCCC3)CC2)s1 | 198 to 200 °C |
| CC(=O)Nc1ncc(CN2CCCC(C(=O)Nc3ccccc3)C2)s1 (stereo not drawn) | 257 to 259 °C |
| CC(=O)Nc1ncc(CN2CCN(CC(=O)Nc3cccc(C)n3)CC2)s1 | 224 to 228 °C |
| CC(=O)Nc1ccc(NC(=O)CN2CCN(Cc3cnc(NC(C)=O)s3)CC2)cc1 | 234 to 237 °C |
| CC(=O)Nc1ncc(CN2CCN(CC(=O)Nc3cnccn3)CC2)s1 | 224 to 226 °C |
| CC(=O)Nc1ncc(CN2CCN(CC(=O)Nc3ccc(F)cc3)CC2)s1 | 212 to 215 °C |
